Reference source for all entries: the supplement of paper PMC12042874

The entries below come with measured amyloid nucleation score values attached.
Protocol details: amyloid nucleation score (Sup35N fusion, yeast selection) (log enrichment); library NNK2; higher = more nucleation; inactive = no reads after selection;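 also: zero at mode of non-aggregating sequences after 7 days selection at 30°C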
Output: the number by itself.

Example entries and their recorded answers appear below.
INSERT INTO results (substance, measured_number) VALUES
  ('KARSRLLVFYKYTKGIWAQS', -0.147),
  ('ENERNML', -0.11),
  ('LAQQRPLRQRTMRHGSRFTA', 0.671),
  ('CVNITYI', 4.62);

Qu. Note down amyloid nucleation score recorded for TSGLILL
Ans. -0.301

Qu. Note down amyloid nucleation score recorded for VLFGLKYFGSAGIQMSTCDK
Ans. 3.53

Qu. Note down amyloid nucleation score recorded for FKINESSYVLWDGSSYCRAG
Ans. -0.711

====

Protocol details: amyloid nucleation score (Sup35N fusion, yeast selection) (log enrichment); library NNK2; higher = more nucleation; inactive = no reads after selection
Observable: amyloid nucleation score

INSERT INTO measurements (ordered_residues, observable, result) VALUES
  ('SPLSSKDCYGKTERSVWHVM', 'amyloid nucleation score', 0.588);

Now, please, on to the next sequence.
Qu. Note down amyloid nucleation score recorded for WDGLASLQVSCVAMLLVQSF
Ans. -0.546

====

Protocol details: amyloid nucleation score (Sup35N fusion, yeast selection) (log enrichment); library NNK3; higher = more nucleation; inactive = no reads after selection
Observable: amyloid nucleation score

Example entries and their recorded answers appear below.
INSERT INTO measurements (substance, result) VALUES
  ('HMFRVVPSLIRI', 'inactive'),
  ('VYRWVC', 'inactive'),
  ('PTAFWGFGF', 'inactive'),
  ('SCKVVPCYHVDDMVEL', 'inactive'),
  ('IVVRPR', 1.24);

Qu. Note down amyloid nucleation score recorded for NLDLWMQSCFHRVAVYS
Ans. inactive

====

Protocol details: amyloid nucleation score (Sup35N fusion, yeast selection) (log enrichment); library NNK1; higher = more nucleation; inactive = no reads after selection
// label = rule met if amyloid nucleation score is not less than 0.5, otherwise rule not met

Below, 6 substances whose answers are already recorded.
INSERT INTO measurements (substance, class_label) VALUES
  ('KPGFYT', 'rule not met'),
  ('WSINMCCMRSRLWNFDGRKE', 'rule met'),
  ('WMDNTSHRFESCEV', 'rule met'),
  ('FKVIYARFVTIWVAVRRAFL', 'rule not met'),
  ('ITGFAPVRVVCEYLS', 'rule not met'),
  ('NYSYVTWNLFGQSPICSLWY', 'rule met');

Qu. Identify whether the reported amyloid nucleation score of the following substance is 0.5 or greater: DIKYECIS
Ans. rule not met

Qu. Identify whether the reported amyloid nucleation score of the following substance is 0.5 or greater: DFPVAIVDLRVCWSYLL
Ans. rule met

====

Protocol details: amyloid nucleation score (Sup35N fusion, yeast selection) (log enrichment); library NNK2; higher = more nucleation; inactive = no reads after selection
The entries below come with measured amyloid nucleation score values attached.
Output: the number by itself.

Example entries and their recorded answers appear below.
INSERT INTO assay_data (ordered_residues, measured_number) VALUES
  ('NSSTVGMIAF', -0.317),
  ('IADIVEHCCAVRVCALGGLM', 0.393),
  ('TIVLGSPANHHTLKCKERGK', 0.197),
  ('TSTIYGLTPRFGNMAHSAVV', 0.227);

Qu. Note down amyloid nucleation score recorded for CCCLSKHSNECGLRMDRPFT
Ans. 0.909

Qu. Note down amyloid nucleation score recorded for WGICSTEVSVIEWDWNGYQF
Ans. -1.14

Qu. Note down amyloid nucleation score recorded for MVPGDRCPIAKNHFFPKINL
Ans. -0.335
